Target: CRBN-DDB1 (Homo sapiens (Human), UniProt Q96SW2)
Sequence (Q96SW2 whole entry): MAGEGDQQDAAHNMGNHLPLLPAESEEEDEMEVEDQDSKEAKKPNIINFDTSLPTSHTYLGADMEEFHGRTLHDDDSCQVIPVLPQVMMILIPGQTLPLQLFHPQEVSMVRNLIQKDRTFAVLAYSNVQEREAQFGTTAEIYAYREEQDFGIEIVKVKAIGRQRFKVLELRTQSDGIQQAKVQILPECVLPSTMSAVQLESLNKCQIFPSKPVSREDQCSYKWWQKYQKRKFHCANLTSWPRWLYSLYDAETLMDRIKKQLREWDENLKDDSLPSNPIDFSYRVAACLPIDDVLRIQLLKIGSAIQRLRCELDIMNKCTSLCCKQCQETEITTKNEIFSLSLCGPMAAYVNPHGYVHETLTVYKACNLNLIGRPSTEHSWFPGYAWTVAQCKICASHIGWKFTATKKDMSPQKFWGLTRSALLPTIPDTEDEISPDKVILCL
Sequence (Q16531 whole entry partner): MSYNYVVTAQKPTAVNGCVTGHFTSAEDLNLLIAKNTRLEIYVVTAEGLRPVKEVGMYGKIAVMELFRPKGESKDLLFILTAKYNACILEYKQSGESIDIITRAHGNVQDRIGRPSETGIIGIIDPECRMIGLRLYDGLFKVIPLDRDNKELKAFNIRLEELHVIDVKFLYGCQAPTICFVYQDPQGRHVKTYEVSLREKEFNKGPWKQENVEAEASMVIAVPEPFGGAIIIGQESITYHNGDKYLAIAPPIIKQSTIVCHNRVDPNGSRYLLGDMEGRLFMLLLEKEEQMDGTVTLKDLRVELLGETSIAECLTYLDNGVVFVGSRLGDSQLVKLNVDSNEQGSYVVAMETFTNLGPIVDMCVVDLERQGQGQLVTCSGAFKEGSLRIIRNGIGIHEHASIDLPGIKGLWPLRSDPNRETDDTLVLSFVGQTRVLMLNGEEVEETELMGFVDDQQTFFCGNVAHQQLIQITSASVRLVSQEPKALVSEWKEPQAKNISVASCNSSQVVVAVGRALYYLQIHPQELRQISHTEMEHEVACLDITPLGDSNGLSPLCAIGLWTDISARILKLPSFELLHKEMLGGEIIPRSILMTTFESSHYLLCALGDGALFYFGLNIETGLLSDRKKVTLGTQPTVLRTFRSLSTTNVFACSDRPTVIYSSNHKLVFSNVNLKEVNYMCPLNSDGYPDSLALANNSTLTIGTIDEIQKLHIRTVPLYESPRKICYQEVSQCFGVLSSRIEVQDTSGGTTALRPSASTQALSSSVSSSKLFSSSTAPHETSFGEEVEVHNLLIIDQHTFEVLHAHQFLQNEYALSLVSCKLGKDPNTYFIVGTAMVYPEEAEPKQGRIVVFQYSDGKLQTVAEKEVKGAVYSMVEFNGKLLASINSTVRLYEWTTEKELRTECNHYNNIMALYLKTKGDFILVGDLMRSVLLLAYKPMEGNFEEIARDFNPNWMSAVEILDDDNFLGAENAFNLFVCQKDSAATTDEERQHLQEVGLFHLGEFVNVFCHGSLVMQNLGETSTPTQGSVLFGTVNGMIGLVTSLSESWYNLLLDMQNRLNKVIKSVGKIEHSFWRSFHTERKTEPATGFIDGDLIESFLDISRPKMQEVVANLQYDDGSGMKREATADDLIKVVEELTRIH
Test: Compound binding to CRBN by HTRF assay
Parameter: EC50. Scope: all listed entries.
Use nM as the unit, but write only the number.

Examples with their reported EC50 follow.
> print(dat)
                                   molecule  valuekind  valuereported
1  CC(C)(C(=O)NCc1cc(Cl)c([C@@H]2CCC(=O)NC2=O)c(Cl)c1)c1ncc(C#N)cn1 (single isomer, unassigned)       EC50            240
2  Cc1ncc(C(C)(C)C(=O)NCc2cc(Cl)c(C3CCC(=O)NC3=O)c(Cl)c2)o1 (stereo not shown)       EC50            110

Challenge: Please look up its EC50: CC(C)(C(=O)NCc1ccc(C2CCC(=O)NC2=O)c(Cl)c1)c1ccc(C#N)cc1 (stereo not shown)
Response given: 470
